assay_system: human serum albumin (HSA) (Homo sapiens, UniProt P02768)
Sequence (P02768 25-609): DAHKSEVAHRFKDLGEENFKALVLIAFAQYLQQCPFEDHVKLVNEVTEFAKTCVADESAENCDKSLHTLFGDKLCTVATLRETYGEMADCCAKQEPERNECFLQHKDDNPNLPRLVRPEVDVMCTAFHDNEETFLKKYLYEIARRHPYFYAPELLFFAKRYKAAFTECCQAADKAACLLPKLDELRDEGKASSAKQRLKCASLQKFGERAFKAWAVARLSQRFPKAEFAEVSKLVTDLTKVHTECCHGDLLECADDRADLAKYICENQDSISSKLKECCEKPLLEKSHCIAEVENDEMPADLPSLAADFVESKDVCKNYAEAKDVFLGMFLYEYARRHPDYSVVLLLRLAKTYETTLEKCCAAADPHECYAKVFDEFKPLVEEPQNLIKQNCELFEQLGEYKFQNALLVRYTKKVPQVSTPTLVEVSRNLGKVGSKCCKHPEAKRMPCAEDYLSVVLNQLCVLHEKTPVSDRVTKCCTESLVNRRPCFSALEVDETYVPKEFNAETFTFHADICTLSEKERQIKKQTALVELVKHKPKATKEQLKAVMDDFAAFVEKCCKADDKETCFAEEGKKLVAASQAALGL
method_summary: Fluorescence emission spectrum (quenching) of HSA with carbamate pesticides
Assay type: binding
measurement_parameters: 303 K, pH 7.4; read-out: Ka (binding constant)
metric_name: pKd
Friendly reminder that pKd comes from taking -log10 of the concentration in mol/L.

Lookup: Which pKd is listed for CNC(=O)O/N=C(\C)C(C)S(C)(=O)=O (centres unmarked) ?
Found: 3.08

Lookup: Which pKd is listed for `CNC(=O)Oc1ccc(N(C)C)c(C)c1` ?
Found: 2.90

Lookup: Which pKd is listed for `CNC(=O)ON=C(C)SC` ?
Found: 3.24

Lookup: Which pKd is listed for CNC(=O)Oc1cc(C)cc(C)c1 [XMC, 3,5-xylyl methylcarbamate] ?
Found: 3.53

Lookup: Which pKd is listed for `CNC(=O)O/N=C(\SC)C(=O)N(C)C` ?
Found: 3.71

====

assay_system: human serum albumin (HSA) (Homo sapiens, UniProt P02768)
method_summary: Circular dichroism spectrum, secondary structure (α-helix content) of HSA
measurement_parameters: 5:1 (Pesticide:HSA), HSA 2×10^−6 M
metric_name: α-helix contents (%)
Answer with a number only, understood to be in %.

Lookup: Which α-helix contents is listed for CNC(=O)ON=C(CSC)C(C)(C)C [Thiofanox, thiofanox] ?
Found: 48.904

Lookup: Which α-helix contents is listed for CNC(=O)O/N=C(\CS(C)(=O)=O)C(C)(C)C [Thiofanox-sulfone, thiofanox sulfone] ?
Found: 51.076

Lookup: Which α-helix contents is listed for CNC(=O)O/N=C(\C)C(C)S(C)(=O)=O (stereo not shown) [Butoxycarboxim, butoxycarboxim] ?
Found: 53.753

Lookup: Which α-helix contents is listed for CNC(=O)Oc1cccc2c1OC(C)(C)C2 [Carbofuran, carbofuran] ?
Found: 51.483

====

assay_system: human serum albumin (HSA) (Homo sapiens, UniProt P02768)
method_summary: Fluorescence emission spectrum (quenching) of HSA with carbamate pesticides
Assay type: binding
measurement_parameters: 310 K, pH 7.4
metric_name: Kq

Lookup: Give human serum albumin (HSA) (Homo sapiens, UniProt P02768) Kq for `CCSCc1ccccc1OC(=O)NC`
Found: 4.135 ± 0.166 10^12 M^−1s^−1

Lookup: Give human serum albumin (HSA) (Homo sapiens, UniProt P02768) Kq for `CNC(=O)Oc1cccc2c1OC(C)(C)C2`
Found: 8.770 ± 0.088 10^12 M^−1s^−1

Lookup: Give human serum albumin (HSA) (Homo sapiens, UniProt P02768) Kq for CNC(=O)O/N=C(\C[S+](C)[O-])C(C)(C)C (centres unmarked) [Thiofanox-sulfoxide]
Found: 5.339 ± 0.093 10^12 M^−1s^−1

Lookup: Give human serum albumin (HSA) (Homo sapiens, UniProt P02768) Kq for `CNC(=O)Oc1cccc(C)c1`
Found: 4.442 ± 0.118 10^12 M^−1s^−1

Lookup: Give human serum albumin (HSA) (Homo sapiens, UniProt P02768) Kq for CNC(=O)O/N=C(\C)C(C)S(C)(=O)=O (centres unmarked)
Found: 6.264 ± 0.074 10^12 M^−1s^−1

====

assay_system: human serum albumin (HSA) (Homo sapiens, UniProt P02768)
method_summary: Fluorescence emission spectrum (quenching) of HSA with carbamate pesticides
Assay type: binding
measurement_parameters: 310 K, pH 7.4
metric_name: Ksv

Lookup: Which Ksv is listed for CNC(=O)Oc1ccc(N(C)C)c(C)c1 [Aminocarb, aminocarb] ?
Found: 3.905 ± 0.179 10^4 M^−1

Lookup: Which Ksv is listed for CNC(=O)O/N=C(\C[S+](C)[O-])C(C)(C)C (stereo not shown) [Thiofanox-sulfoxide] ?
Found: 5.339 ± 0.093 10^4 M^−1

Lookup: Which Ksv is listed for CNC(=O)ON=C(C)SC [Methomyl, methomyl] ?
Found: 5.288 ± 0.093 10^4 M^−1

Lookup: Which Ksv is listed for CNC(=O)Oc1ccccc1OC(C)C [Propoxur, propoxur] ?
Found: 5.053 ± 0.120 10^4 M^−1
